Values compiled from PubChem BioAssay AID1963833.

Test system: 883617-216-R-J1-PDC complex spheroid viability;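 note: spheroids exposed to compounds for seven days before readout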
PROTOCOL TEXT: Anticancer human tumor 883617-216-R-J1-PDC patient-derived bladder carcinoma cell line growth inhibition [POLQ]; active = viability on the fitted dose curve at most 10% of control; inactive = the rest
RUN PARAMETERS: second compound 1 µM; first compound 1 µM
Field 'call' accepts active, inactive

Some solved cases for reference:
COMPOUND	CLASSIFICATION
CCc1cc2c(N3CCc4c(cc(Cn5ccnc5)cc4-c4cn(C)nc4C(F)(F)F)C3=O)cc(C)nc2c(OC)n1 + Nc1ccc(C#CCN(C(=O)Cc2ncc(C(F)(F)F)cc2C(F)(F)F)c2ccc(F)cc2)nn1	inactive
CNCc1ccc(-c2[nH]c3cc(F)cc4c3c2CCNC4=O)cc1 + COC1C(OC(N)=O)C(O)C(Oc2ccc3c(O)c(NC(=O)c4ccc(O)c(CC=C(C)C)c4)c(=O)oc3c2C)OC1(C)C	inactive
CCc1cc2c(N3CCc4c(cc(Cn5ccnc5)cc4-c4cn(C)nc4C(F)(F)F)C3=O)ccnc2c(OC)n1 + COC1C(OC(N)=O)C(O)C(Oc2ccc3c(O)c(NC(=O)c4ccc(O)c(CC=C(C)C)c4)c(=O)oc3c2C)OC1(C)C	inactive
COc1ccc([C@@H](O)c2cc(-c3ncnc4cc(N5CCOCC5)ccc34)c(F)cc2Cl)nn1 + Cc1cccc(N(C)C(=O)C2C(O)CCN2c2nc(C)cc(C(F)(F)F)c2C#N)c1	inactive
O=c1[nH]cc(F)c(=O)[nH]1 + Cc1cccc(N(C)C(=O)C2C(O)CCN2c2nc(C)cc(C(F)(F)F)c2C#N)c1	inactive
COc1cc2cc(C(=O)CCC(=O)O)sc2cc1OC + COC1C(OC(N)=O)C(O)C(Oc2ccc3c(O)c(NC(=O)c4ccc(O)c(CC=C(C)C)c4)c(=O)oc3c2C)OC1(C)C	inactive
O=C(c1cc(Cc2n[nH]c(=O)c3ccccc23)ccc1F)N1CCN(C(=O)C2CC2)CC1 + COC1C(OC(N)=O)C(O)C(Oc2ccc3c(O)c(NC(=O)c4ccc(O)c(CC=C(C)C)c4)c(=O)oc3c2C)OC1(C)C	inactive
Nc1ccn(C2OC(CO)C(O)C2(F)F)c(=O)n1 (stereo not given) + Cc1cccc(N(C)C(=O)C2C(O)CCN2c2nc(C)cc(C(F)(F)F)c2C#N)c1	inactive
C=CCn1c(=O)c2cnc(Nc3ccc(N4CCN(C)CC4)cc3)nc2n1-c1cccc(C(C)(C)O)n1 + Cc1cccc(N(C)C(=O)C2C(O)CCN2c2nc(C)cc(C(F)(F)F)c2C#N)c1	inactive
O=C(Nc1ccc(O)c(NS(=O)(=O)c2ccc(F)cc2)c1)c1ccc(-c2ccccc2)cc1 + COC1C(OC(N)=O)C(O)C(Oc2ccc3c(O)c(NC(=O)c4ccc(O)c(CC=C(C)C)c4)c(=O)oc3c2C)OC1(C)C	inactive

Exercise: Any idea what this test logged for COc1cccc2c1C(=O)c1c(O)c3c(c(O)c1C2=O)CC(O)(C(=O)CO)CC3OC1CC(N)C(O)C(C)O1 (stereo not given) + COC1C(OC(N)=O)C(O)C(Oc2ccc3c(O)c(NC(=O)c4ccc(O)c(CC=C(C)C)c4)c(=O)oc3c2C)OC1(C)C ?
Key: active
